# Tested on: CCRF-CEM
# measurement protocol: Antitumor activity against human CCRF-CEM cells
# Assay type: functional
// classify(record): look up GI50 in ranges band 1 (below 0.7 µg/mL), band 2 (0.7 µg/mL to below 3 µg/mL), band 3 (3 µg/mL or more)

Solved cases below.
compound="CC(=O)NCCCCCCCCCCCCCCC/C=C1\\CC(CO)(COC(=O)C(C)(C)C)OC1=O (centres undefined)" assay_system=CCRF-CEM qualitative_label="band 2"
compound="CCCCCCCCC(O)CCCCCC/C=C1\\CC(CO)(COC(=O)C(C)(C)C)OC1=O (centres undefined)" assay_system=CCRF-CEM qualitative_label="band 3"
compound="CC(C)(C)C(=O)OCC1(CO)C/C(=C/CCCCCCCCCCCCCCC=O)C(=O)O1 (centres undefined)" assay_system=CCRF-CEM qualitative_label="band 3"
compound="CCCCCOCCCCCCC/C=C1\\CC(CO)(COC(=O)C(C)(C)C)OC1=O (centres undefined)" assay_system=CCRF-CEM qualitative_label="band 2"
compound="COCOCCCCCCC/C=C1\\CC(CO)(COC(=O)C(C)(C)C)OC1=O (centres undefined)" assay_system=CCRF-CEM qualitative_label="band 3"

Assign a bin to COCCCCCCCCCCCCCCC/C=C1/CC(CO)(COC(=O)C(C)(C)C)OC1=O (centres undefined) band 1

Band assignment needed for CC(C)(C)C(=O)OCC1(CO)C/C(=C\CCCCCCCCCCCO)C(=O)O1 (centres undefined) please. band 1

Which GI50 band matches CC(C)(C)C(=O)OCCCCCCCCCCCCCCC/C=C1\CC(CO)(COC(=O)C(C)(C)C)OC1=O (centres undefined) ? band 3

---

# System: CCRF-CEM
# measurement protocol: Antitumor activity against human CCRF-CEM cells
# Type: functional
property label: GI50 (µg/mL)
Report the figure in µg/mL without appending any unit label.

Study these solved cases before continuing.
compound="COCCCCCCCCCCC/C=C1\\CC(CO)(COC(=O)C(C)(C)C)OC1=O (stereo unspecified)" assay_system=CCRF-CEM output_unit=µg/mL assay_result=0.701
compound="CC(C)(C)C(=O)OCC1(CO)C/C(=C\\CCCCCCCCCCCCCCCN)C(=O)O1 (stereo unspecified)" assay_system=CCRF-CEM output_unit=µg/mL assay_result=2.82
compound="COC(=O)CCCCCCCCCCCCCC/C=C1\\CC(CO)(COC(=O)C(C)(C)C)OC1=O (stereo unspecified)" assay_system=CCRF-CEM output_unit=µg/mL assay_result=0.691
compound="CC(=O)OCCCCCCCCCCCCCCC/C=C1\\CC(CO)(COC(=O)C(C)(C)C)OC1=O (stereo unspecified)" assay_system=CCRF-CEM output_unit=µg/mL assay_result=7.55
compound="CCCCCCCCCOCCCCCCC/C=C1\\CC(CO)(COC(=O)C(C)(C)C)OC1=O (stereo unspecified)" assay_system=CCRF-CEM output_unit=µg/mL assay_result=0.304

Consider the additional compound presented here.
What does the data say about its GI50? Entry: CC(C)(C)C(=O)OCC1(CO)C/C(=C/CCCCCCCCCCCCCCCO)C(=O)O1 (stereo unspecified) 6.63
